Origin of the recorded values: PubChem BioAssay AID1159580

experiment-notes: chemical genetic growth profiling, strain panel (AID 1159580);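 further: tested at 20 µM; growth read once vehicle control cultures reached saturation at 30 °C; lower values mean less growth of the strain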
measurement-setup: S. cerevisiae strains, growth OD, strain wild type
Screen size: about 5,500 compounds; about 2,000 (36%) were called active. Roughly 18% stayed inconclusive and do not appear here. No stated cut-off is given here; in the data, active means normalized growth mostly below about 0.91 (no sharp cut-off); inconclusive means no clear call, values can overlap the other calls; inactive means mostly above about 0.92. The list shows a part of the results.
Returns: one label drawn from active, inactive

Here are 9 compounds together with their reported answers.
Nc1ncn([C@@H]2O[C@H](CO)[C@@H](O)[C@H]2O)c(=O)n1	inactive
COc1ccc(CCNC(=S)Nc2cccc(C(F)(F)F)c2)cc1OC	inactive
NCCNC(=O)c1ccc(Cl)cc1	inactive
CC(=O)Nc1ccc(S(=O)(=O)Nc2ccc([N+](=O)[O-])cc2)cc1	inactive
O=C(O[C@@H]1Cc2c(O)cc(O)cc2O[C@@H]1c1cc(O)c(O)c(O)c1-c1c([C@H]2Oc3cc(O)cc(O)c3C[C@H]2O)cc(O)c(O)c1O)c1cc(O)c(O)c(O)c1	active
O=C(COC(=O)c1ccccc1Nc1ccccc1)c1ccc(Cl)cc1	inactive
CCCCNC(=O)NCCSCc1ccco1	inactive
COC(=O)Oc1ccccc1C(=O)O	inactive
CN/C(=C\[N+](=O)[O-])NCCSCc1ccc(CN(C)C)o1	inactive

Now consider the entry below.
Exam item: In this assay, the call recorded for C1CNCCN1 was what?
Marked response: inactive
